Counter-ions that a name gives are not always drawn.
Measure name: melting point

Would you please look over these solved cases?
| Molecule | melting point |
| --- | --- |
| COc1cccc(-c2cc3c(NCc4ccccc4)ccnc3[nH]2)c1 (as salt: hydrochloride) [Compound 14] | 117 to 119 °C |
| COc1ccc(CNc2ccn(CCCCN)c3nc(-c4ccc(OC)cc4)cc2-3)cc1 (as salt: TFA) [Compound 36] | 127 to 127.5 °C |
| COc1cccc(-c2cn(CCCCCNC(=O)c3ccccc3C(=O)O)c3cc(Cl)ncc23)c1 [Compound 82] | 97 to 99 °C |

QUERY: Please report the measured melting point for COc1cccc(-c2cc3c(NCCCn4ccnc4)ccnc3[nH]2)c1 (as salt: hydrochloride) [Compound 12]
RESULT: 161 to 162 °C

QUERY: Please report the measured melting point for c1ccc(CCCOc2cccc(-c3cc4c(Nc5ccccn5)ccnc4[nH]3)c2)cc1 (as salt: HCl) [Compound 25]
RESULT: 175 to 176 °C

QUERY: Please report the measured melting point for COc1cccc(-c2cn(C3CC(CNC(=O)c4ccccc4C(=O)O)C3)c3cc(Cl)ncc23)c1 (stereo not shown) [Compound 80]
RESULT: 177 to 180 °C

====

Counter-ions that a name gives are not always drawn.
Measure name: melting point

| Molecule | melting point |
| --- | --- |
| NCCCCCn1cc(-c2cccc(OCc3ccccc3)c2)c2c(N)nccc21 [Compound 69] | 75 to 78 °C |
| COc1cccc(-c2c([Si](C)(C)C)n(CCCCN3C(=O)c4ccccc4C3=O)c3ccnc(Cl)c23)c1 (as salt: TFA) | 183 to 184 °C |
| Clc1cc2[nH]cc(-c3cccc(OCc4ccccc4)c3)c2cn1 [Compound 83] | 225 to 228.5 °C |

Next molecule, please.
QUERY: Please report the measured melting point for COc1ccc(CNc2ccnc3[nH]c(-c4cccc(OCc5ccccc5)c4)cc23)cc1 [Compound 32]
RESULT: 218 to 219 °C

====

Where a name gives a salt, the structure may show the parent alone.
Measure name: melting point

Would you please look over these solved cases?
| Compound | Result |
| --- | --- |
| COc1ccc(CNc2nccc3[nH]cc(-c4cccc(OC)c4)c23)cc1 (as salt: HCl) [Compound 42] | 226 to 227 °C |
| COc1ccc(CNc2ccnc3[nH]c(-c4ccc(OC)cc4)cc23)cc1 (as salt: hydrochloride) [Compound 16] | 196 to 197 °C |
| C=CCNc1ccnc2[nH]c(-c3ccc(OC)cc3)cc12 (as salt: TFA) [Compound 35] | 189.5 to 190 °C |

QUERY: Please report the measured melting point for COc1ccc(CNc2nccc3[nH]c(-c4cccc(OCc5ccccc5)c4)cc23)cc1 (as salt: TFA) [Compound 48]
RESULT: 130 to 131 °C

====

Collected melting point values appear next to each entry.
Structures can show the parent of a compound that is named as a salt.

Would you please look over these solved cases?
| Compound | melting point |
| --- | --- |
| COc1cc(-c2cc3c(NCCc4ccccn4)ccnc3[nH]2)cc(OC)c1OC (as salt: hydrochloride) (hydrate or solvate) | 153 to 154 °C |
| COc1cccc(-c2cc3c(Nc4ccc(F)c(Cl)c4)ccnc3[nH]2)c1 (as salt: hydrochloride) | 164 to 165 °C |
| COc1cc(-c2cc3c(Nc4cnccn4)ccnc3[nH]2)cc(OC)c1OC (as salt: hydrochloride) (hydrate or solvate) | 292 to 294 °C |

QUERY: Please report the measured melting point for COc1cccc(-c2cn(CCCN3C(=O)c4ccccc4C3=O)c3ccnc(Cl)c23)c1 (as salt: TFA)
RESULT: 129 to 130 °C

QUERY: Please report the measured melting point for COc1cccc(-c2cc3c(NCCn4cccc4)ccnc3[nH]2)c1 (as salt: hydrochloride)
RESULT: 218 to 219 °C

QUERY: Please report the measured melting point for COc1cccc(-c2cc3c(NCCCN(C)C)ccnc3[nH]2)c1 (as salt: hydrochloride) (hydrate or solvate)
RESULT: 257 to 258 °C
